- target-under-test: Polyunsaturated fatty acid 5-lipoxygenase (Homo sapiens) (UniProt P09917)
- Sequence (P09917 whole entry): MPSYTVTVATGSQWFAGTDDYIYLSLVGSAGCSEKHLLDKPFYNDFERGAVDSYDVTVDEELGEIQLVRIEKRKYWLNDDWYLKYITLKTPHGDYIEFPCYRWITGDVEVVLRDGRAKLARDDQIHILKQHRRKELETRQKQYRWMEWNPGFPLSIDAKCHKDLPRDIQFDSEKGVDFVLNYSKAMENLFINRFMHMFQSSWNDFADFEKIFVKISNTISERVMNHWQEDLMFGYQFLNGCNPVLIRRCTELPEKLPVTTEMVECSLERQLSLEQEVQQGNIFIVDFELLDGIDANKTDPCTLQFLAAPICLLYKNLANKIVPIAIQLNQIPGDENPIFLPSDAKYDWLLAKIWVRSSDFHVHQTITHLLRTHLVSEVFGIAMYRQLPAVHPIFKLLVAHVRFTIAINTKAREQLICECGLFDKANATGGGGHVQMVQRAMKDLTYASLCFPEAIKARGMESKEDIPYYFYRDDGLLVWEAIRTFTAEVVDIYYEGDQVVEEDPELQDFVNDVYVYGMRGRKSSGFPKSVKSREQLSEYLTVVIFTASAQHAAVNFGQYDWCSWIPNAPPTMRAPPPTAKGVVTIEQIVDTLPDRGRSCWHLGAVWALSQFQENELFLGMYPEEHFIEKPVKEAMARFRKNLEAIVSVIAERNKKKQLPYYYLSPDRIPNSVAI
- test: Inhibition of 5-LOX (unknown origin) at 10 uM
The source made the active and inactive calls. The calls are words filed in the database; no cut-off is given here.
assay-metric: inhibition

Consider the reported inhibition for these compounds:
O=C(Cn1c(=O)sc2cc(C(=O)c3ccccc3F)ccc21)Nc1ccccn1: inactive
O=C(Cn1c(=O)sc2cc(C(=O)c3ccccc3Cl)ccc21)Nc1ccccn1: 3%
O=C(Cn1c(=O)sc2cc(C(=O)c3ccccc3F)ccc21)Nc1ccccc1: 24%
O=C(Cn1c(=O)sc2cc(C(=O)c3ccccc3)ccc21)Nc1cccc(Cl)c1: 46%
O=C(Cn1c(=O)sc2cc(C(=O)c3ccccc3Cl)ccc21)Nc1ccc(Cl)cc1: inactive
Cc1cccc(NC(=O)Cn2c(=O)sc3cc(C(=O)c4ccccc4F)ccc32)n1: 20%
O=C(Cn1c(=O)sc2cc(C(=O)c3ccccc3Cl)ccc21)Nc1ccccc1: 16%
Cc1cccc(NC(=O)Cn2c(=O)sc3cc(C(=O)c4ccccc4)ccc32)n1: 26%
O=C(Cn1c(=O)sc2cc(C(=O)c3ccccc3F)ccc21)Nc1ccc(Cl)cc1: inactive

The record that follows has no inhibition shown yet.
Qu. Reported inhibition, compound O=C(Cn1c(=O)sc2cc(C(=O)c3ccccc3)ccc21)Nc1ccc(Cl)cc1 : ____
Ans. inactive
